experiment: Rabbit plasma and ocular tissue steady state pharmacokinetics, 8 daily oral doses; assay type: in vivo, Dutch Belted pigmented rabbits; conditions: male, Dutch Belted; rabbit Plasma, 100 mg/kg/day oral, Day 8
experimental readout: Cmax (ng/mL)

{"smi": "COc1cc(/C=C/C(=O)Nc2ccccc2C(=O)O)ccc1OC(F)F", "experimental readout": "Cmax", "value measured": 42000}

###

assay: Rabbit plasma and ocular tissue steady state pharmacokinetics, 8 daily oral doses; type: in vivo, Dutch Belted pigmented rabbits; settings: male, Dutch Belted, oral; rabbit ocular tissues, 50 and 100 mg/kg; read-out: Tmax for all analyzed ocular tissues

{"smi": "COc1cc(/C=C/C(=O)Nc2ccccc2C(=O)O)ccc1OC(F)F", "Tmax": "1 to 4 h"}
